Taken from patent US5288709A.

So I've got a bunch of compounds here, and I need their MIC values.
System: Staphylococcus aureus ATCC 6538P
Test: In-vitro antimicrobial activity primary screen (agar dilution MIC)
Assay type: cell-based
Conditions: Staphylococcus aureus, ATCC6538P, 24 h, BHI agar, 20-24 h
One number for each entry, in µg/mL.

compound | assay metric | u | recorded value
CC[C@H]1OC(=O)[C@H](C)[C@@H](O[C@H]2C[C@@](C)(OC)[C@H](N=CN(C)C)[C@H](C)O2)[C@H](C)[C@@H](O[C@@H]2O[C@H](C)C[C@H](N(C)C)[C@H]2O)[C@](C)(O)C[C@@H](C)[C@@H]2O[C@@]1(C)C(=O)[C@H]2C | MIC | µg/mL | 0.39
CC[C@H]1OC(=O)[C@H](C)[C@@H](O[C@H]2C[C@@](C)(OC)[C@@H](O)[C@H](C)O2)[C@H](C)[C@@H](O[C@@H]2O[C@H](C)C[C@H](N(C)C)[C@H]2O)[C@](C)(O)C[C@@H](C)C(=O)[C@H](C)[C@@H](O)[C@]1(C)O [Std, Erythromycin A, reference compound] | MIC | µg/mL | 0.2
CC[C@H]1OC(=O)[C@H](C)[C@@H](O[C@H]2C[C@@](C)(OC)[C@H](O)[C@H](C)O2)[C@H](C)[C@@H](O[C@@H]2O[C@H](C)C[C@H](N(C)C)[C@H]2O)[C@](C)(O)C[C@@H](C)[C@@H]2O[C@@]1(C)C(=O)[C@H]2C | MIC | µg/mL | 0.2

Batch of 2 compounds: report MIC for each.
1. CC[C@H]1OC(=O)[C@H](C)[C@@H](O[C@H]2C[C@@](C)(OC)[C@@H](O)[C@H](C)O2)[C@H](C)[C@@H](O[C@@H]2O[C@H](C)C[C@H](N(C)C)[C@H]2O)[C@](C)(OC)C[C@@H](C)[C@@H]2O[C@@]1(C)C(=O)[C@H]2C [Example 28B]
2. CC[C@H]1OC(=O)[C@H](C)[C@@H](O[C@H]2C[C@@](C)(OC)[C@H](N)[C@H](C)O2)[C@H](C)[C@@H](O[C@@H]2O[C@H](C)C[C@H](N(C)C)[C@H]2O)[C@](C)(O)C[C@@H](C)[C@@H]2O[C@@]1(C)C(=O)[C@H]2C

1: 0.39; 2: 0.2

* * *

Tested on: Staphylococcus aureus A5177
Experiment: In-vitro antimicrobial activity primary screen (agar dilution MIC)
Format: cell-based
Details: Staphylococcus aureus, A5177, 24 h, Staphylococcus aureus A5177; BHI agar, 20-24 h
assay metric: MIC
# answer = value followed by unit

Value of measured MIC for the entry `CC[C@H]1OC(=O)[C@H](C)[C@@H](O[C@H]2C[C@@](C)(OC)[C@@H](O)[C@H](C)O2)[C@H](C)[C@@H](O[C@@H]2O[C@H](C)C[C@H](N(C)C)[C@H]2O)[C@](C)(O)C[C@@H](C)[C@@H]2O[C@@]1(C)C(=O)[C@H]2C` : 3.1 µg/mL

* * *

Test system: Streptococcus bovis A5169
Assay: In-vitro antimicrobial activity primary screen (agar dilution MIC)
Type: cell-based
Conditions: Streptococcus equinus, BHI agar, 20-24 h, read-out: MIC
assay metric: MIC (µg/mL)
Give bare numbers, in µg/mL.

input smiles | assay metric | recorded value
CC[C@H]1OC(=O)[C@H](C)[C@@H](O[C@H]2C[C@@](C)(OC)[C@@H](O)[C@H](C)O2)[C@H](C)[C@@H](O[C@@H]2O[C@H](C)C[C@H](N(C)C)[C@H]2O)[C@](C)(O)C[C@@H](C)[C@@H]2O[C@@]1(C)C(=O)[C@H]2C | MIC | 0.1
CC[C@H]1OC(=O)[C@H](C)[C@@H](O[C@H]2C[C@@](C)(OC)[C@@H](N)[C@H](C)O2)[C@H](C)[C@@H](O[C@@H]2O[C@H](C)C[C@H](N(C)C)[C@H]2O)[C@](C)(O)C[C@@H](C)[C@@H]2O[C@@]1(C)[C@@H](O)[C@H]2C | MIC | 0.01
CC[C@H]1OC(=O)[C@H](C)[C@@H](O[C@H]2C[C@@](C)(OC)[C@H](NC(=O)OCc3ccccc3)[C@H](C)O2)[C@H](C)[C@@H](O[C@@H]2O[C@H](C)C[C@H](N(C)C)[C@H]2O)[C@](C)(O)C[C@@H](C)[C@@H]2O[C@@]1(C)C(=O)[C@H]2C | MIC | 0.1

Please report MIC for every entry that follows.
1. CC[C@H]1OC(=O)[C@H](C)[C@@H](O[C@H]2C[C@@](C)(OC)[C@@H](O)[C@H](C)O2)[C@H](C)[C@@H](O[C@@H]2O[C@H](C)C[C@H](N(C)C)[C@H]2O)[C@](C)(O)C[C@@H](C)[C@@H]2O[C@@]1(C)[C@@H](N)[C@H]2C
2. CC[C@H]1OC(=O)[C@H](C)[C@@H](O[C@H]2C[C@@](C)(OC)[C@H](N)[C@H](C)O2)[C@H](C)[C@@H](O[C@@H]2O[C@H](C)C[C@H](N(C)C)[C@H]2O)[C@](C)(O)C[C@@H](C)[C@@H]2O[C@@]1(C)[C@@H](O)[C@H]2C

1: 0.1; 2: 0.01
